target: F protein of RSV (Long strain) (RSV (Long strain), UniProt P12568 26-574); assay: cell-based or functional assay
Sequence (P12568 26-574): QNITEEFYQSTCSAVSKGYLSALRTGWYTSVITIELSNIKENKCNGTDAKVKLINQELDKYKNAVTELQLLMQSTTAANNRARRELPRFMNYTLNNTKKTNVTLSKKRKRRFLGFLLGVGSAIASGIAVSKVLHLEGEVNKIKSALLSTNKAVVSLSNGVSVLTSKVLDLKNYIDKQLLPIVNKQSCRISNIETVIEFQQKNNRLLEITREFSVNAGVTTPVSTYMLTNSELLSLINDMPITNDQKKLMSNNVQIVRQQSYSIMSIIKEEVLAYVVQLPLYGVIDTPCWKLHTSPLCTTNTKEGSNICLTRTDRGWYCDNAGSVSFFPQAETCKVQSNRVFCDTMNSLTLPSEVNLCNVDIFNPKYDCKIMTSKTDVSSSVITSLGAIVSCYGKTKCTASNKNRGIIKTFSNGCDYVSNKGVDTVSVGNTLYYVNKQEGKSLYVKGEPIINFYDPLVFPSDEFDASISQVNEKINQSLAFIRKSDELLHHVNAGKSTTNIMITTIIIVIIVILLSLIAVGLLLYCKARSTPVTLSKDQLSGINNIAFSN
Below, each entry is listed alongside its reported Mean IC50 (Control).
# include the unit after the value

Answered examples (2):
A12a6 Fab (Fab, V domains shown) VH: QVTLRESGPALVKPTQTLTLTCTFSGFSLSTAGMSVGWIRQPPGKALEWLADIWWDGKKDYNPSLKDRLTISKDTSKNQVVLKVTNMDPADTATYYCARDMIFNFYFDVWGQGTTVTVSS VL: DIQMTQSPSTLSASVGDRVTITCSASSRVGYMHWYQQKPGKAPKLLIYDTFKLSSGVPSRFSGSGSGTEFTLTISSLQPDDFATYYCFQGSGYPFTFGGGTKVEIK: 0.031 µg/mL
A17d4(1) IgG (antibody, V domains shown) VH: QVTLRESGPALVKPTQTLTLTCTFSGFSLSTAGMSVGWIRQPPGKALEWLADIWWDGKKSYNPSLKDRLTISKDTSKNQVVLKVTNMDPADTATYYCARDMIFNFYFDVWGQGTTVTVSS VL: DIQMTQSPSTLSASVGDRVTITCLPSSRVGYMHWYQQKPGKAPKLLIYDTMYQSSGVPSRFSGSGSGTEFTLTISSLQPDDFATYYCFQGSGYPFTFGGGTKVEIKR: 0.0354 µg/mL

Next:
Could you share which Mean IC50 (Control) value was measured for A4B4 IgG (antibody, V domains shown) VH: QVTLRESGPALVKPTQTLTLTCTFSGFSLSTAGMSVGWIRQPPGKALEWLADIWWDDKKHYNPSLKDRLTISKDTSKNQVVLKVTNMDPADTATYYCARDMIFNFYFDVWGQGTTVTVSS VL: DIQMTQSPSTLSASVGDRVTITCSASSRVGYMHWYQQKPGKAPKLLIYDTFFLDSGVPSRFSGSGSGTEFTLTISSLQPDDFATYYCFQGSGYPFTFGGGTKVEIKR ?
0.0154 µg/mL
